- SYSTEM: T1, rat VPAC2 receptor (rat, UniProt P35000 23-437)
- T1 sequence (looked up): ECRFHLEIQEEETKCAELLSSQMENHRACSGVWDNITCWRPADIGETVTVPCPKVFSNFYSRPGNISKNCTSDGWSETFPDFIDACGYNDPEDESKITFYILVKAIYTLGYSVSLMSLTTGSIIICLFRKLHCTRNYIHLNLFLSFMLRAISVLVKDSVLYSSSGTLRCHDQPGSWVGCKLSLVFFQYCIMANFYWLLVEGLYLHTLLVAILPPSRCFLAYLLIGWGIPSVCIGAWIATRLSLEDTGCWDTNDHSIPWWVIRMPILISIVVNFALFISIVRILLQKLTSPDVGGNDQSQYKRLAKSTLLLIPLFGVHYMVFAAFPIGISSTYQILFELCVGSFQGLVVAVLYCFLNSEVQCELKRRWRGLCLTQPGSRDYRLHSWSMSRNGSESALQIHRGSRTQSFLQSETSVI
- PROTOCOL: cell-based or functional assay
*1 amine or outer side, *2 acyl side, *3 side chain or, on linkers, in order; H or OH if unused. [ ]: non-standard residue; d: D form. The star is where a group is joined. Tyr(OMe) = methoxy tyrosine, COc1ccc(C[C@H](N[*:1])C(=O)[*:2])cc1; WPEG40K = not defined here; Orn = NCCC[C@H](N)C(=O)O; Abu = CC[C@H](N)C(=O)O; Hexanoyl = CCCCCC(=O)*; Aib = CC(C)(N)C(=O)O
// reported Rat VPAC2 Receptor: DiscoveRx: (EC50; nM) for each item listed
ATTRIBUTE_MEASURED: Rat VPAC2 Receptor: DiscoveRx: (EC50; nM)

{"BINDER": "HSDAVFTEQYTXLRXQVAXXXYLQSIXXGGPSSGAPPPC (C6-HSDAVFTEQY(OMe)TOrnLRAibQVAK(CO(CH2)2SPEG20K)AibOrnYLQSIOrnOrnGGPSSGAPPPC(PEG20K)-NH2) [P492]", "VAL": "963 nM"}
{"BINDER": "HSDAVFTEQYTXLRXQVAAXXYLQSIXXGGPSSGAPPPS (C6-HSDAVFTEQY(OMe)TOrnLRAibQVAAAibK(W-PEG40K)YLQSIOrnOrnGGPSSGAPPPS-NH2) [P410]", "VAL": "318 nM"}
{"BINDER": "HSDAVFTEQYTXLRXQLAXXXYLQSIXXGGPSSGAPPPCC (C6-HSDAVFTEQY(OMe)TOrnLRAibQLAAbuAibOrnY(OMe)LQSIOrnOrnGGPSSGAPPPC(PEG20K)C(PEG20K)-NH2) [P582]", "VAL": "31 nM"}
{"BINDER": "Hexanoyl-HSDAVFTEQ[Tyr(OMe)]T[Orn]LRK(WPEG40K)QLA[Abu][Aib][Orn]YLQ[Aib]I[Orn][Orn]GGPSSGAPPPS-NH2 (reading uncertain) [P557]", "VAL": "397 nM"}
{"BINDER": "C6-HSDAVFTEQ[Tyr(OMe)]T[Orn]LRC(PEG 40 kDa)QLA[Abu][Aib][Orn]YLQ[Aib]I[Orn][Orn]GGPSSGAPPPS-NH2 [P547]", "VAL": "150 nM"}
{"BINDER": "HSDAVFTEQYTXLRXQCAXXXYLQXIXXGGPSSGAPPPS (C6-HSDAVFTEQY(OMe)TOrnLRAibQC(PEG40K)AAbuAibOrnYLQAibIOrnOrnGGPSSGAPPPS-NH2) [P545]", "VAL": "99.5 nM"}
{"BINDER": "HSDAVFTEQYTXLRXQVAAXXYLQSXXXGGPSSGAPPPC (C6-HSDAVFTEQY(OMe)TOrnLRAibQVAAAibOrnYLQSK(CO(CH2)2SPEG20K)OrnOrnGGPSSGAPPPC(PEG20K)-NH2) [P497]", "VAL": "345 nM"}
{"BINDER": "HSDAVFTEQYTXLRXQVAAXXYLQXIXXGGPSSGAPPPC (C6-HSDAVFTEQY(OMe)TOrnLRAibQVAAAibOrnYLQAibIOrnOrnGGPSSGAPPPC(PEG40K)-NH2) [P509]", "VAL": "28.2 nM"}
{"BINDER": "HSDAVFTEQYTXLRXQLAXXXYXQSIXXGGPSSGAPPPCC (C6-HSDAVFTEQY(OMe)TOrnLRAibQLAAbuAibOrnYAibQSIOrnOrnGGPSSGAPPPC(PEG20K)C(PEG20K)-NH2) [P521]", "VAL": "33.1 nM"}
{"BINDER": "HSDAVFTEQYTXLRXQLAXXXYLQSIXCXGGPSSGAPPPS (C6-HSDAVFTEQY(OMe)TOrnLRAibQLAAbuAibOrnYLQSIOrnC(PEG40K)OrnGGPSSGAPPPS-NH2) [P539]", "VAL": "21 nM"}
{"BINDER": "HSDAVFTEQYTXLRXQVAAXXYLQSIXCXGGPSSGAPPPC (C6-HSDAVFTEQY(OMe)TOrnLRAibQVAAAibOrnYLQSIOrnC(PEG20K)OrnGGPSSGAPPPC(PEG20K)-NH2) [P505]", "VAL": "42.6 nM"}
{"BINDER": "HSDAVFTEQYTXLRXQVAAXXYLQSIXXXGGPSSGAPPPS (not fully specified; C6-HSDAVFTEQY(OMe)TOrnLRAibQVAAAibOrnYLQSIOrnK(WPEG40K)OrnGGPSSGAPPPS-NH2) [P454]", "VAL": "79.6 nM"}
{"BINDER": "HSDAVFTEQYTXLRXQVAAXXYLQSCXXGGPSSGAPPPC (C6-HSDAVFTEQY(OMe)TOrnLRAibQVAAAibOrnYLQSC(PEG20K)OrnOrnGGPSSGAPPPC(PEG20K)-NH2) [P503]", "VAL": "520 nM"}
{"BINDER": "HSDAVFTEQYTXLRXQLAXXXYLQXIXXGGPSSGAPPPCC (C6-HSDAVFTEQY(OMe)TOrnLRAibQLAAbuAibOrnY(OMe)LQAibIOrnOrnGGPSSGAPPPC(PEG20K)C(PEG20K)-NH2) [P574]", "VAL": "33.8 nM"}
{"BINDER": "HSDAVFTEQYTXLRXQVAAXXYLXSIXXGGPSSGAPPPC (C6-HSDAVFTEQY(OMe)TOrnLRAibQVAAAibOrnYLK(CO(CH2)2SPEG20K)SIOrnOrnGGPSSGAPPPC(PEG20K)-NH2) [P490]", "VAL": "192 nM"}
{"BINDER": "HSDAVFTEQYTXLRXQLAXXXYLQSIXXCGGPSSGAPPPC (C6-HSDAVFTEQY(OMe)TOrnLRAibQLAAbuAibOrnYLQSIOrnOrnC(PEG20K)GGPSSGAPPPC(PEG20K)-NH2) [P572]", "VAL": "10.8 nM"}
{"BINDER": "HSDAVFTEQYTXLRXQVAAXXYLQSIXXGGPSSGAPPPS (C6-HSDAVFTEQY(OMe)TOrnLRK(CO(CH2)2SPEG40K)QVAAAibOrnYLQSIOrnOrnGGPSSGAPPPS-NH2) [P485]", "VAL": "42.5 nM"}
{"BINDER": "HSDAVFTEQYTXXRXQVAAXXYLQSIXXGGPSSGAPPPS (C6-HSDAVFTEQY(OMe)TOrnK(CO(CH2)2SPEG20K)RAibQVAAAibOrnYLQSIOrnOrnGGPSSGAPPPS-NH2) [P470]", "VAL": "111 nM"}
{"BINDER": "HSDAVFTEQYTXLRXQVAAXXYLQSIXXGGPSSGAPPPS (not fully specified; C6-HSDAVFTEQY(OMe)TOrnLRK(WPEG40K)QVAAAibOrnYLQSIOrnOrnGGPSSGAPPPS-NH2) [P529]", "VAL": "199 nM"}
{"BINDER": "HSDAVFTEQYTXLRXQVAAXXYLQSIXXCGGPSSGAPPPC (C6-HSDAVFTEQY(OMe)TOrnLRAibQVAAAibOrnYLQSIOrnOrnC(PEG20K)GGPSSGAPPPC(PEG20K)-NH2) [P562]", "VAL": "52.5 nM"}
{"BINDER": "HSDAVFTEQYTRXRXQLAAXXYLQSIKXXGGPSSGAPPPC (C6-HSDAVFTEQY(OMe)TRAibRAibQLAAAibOrnY(OMe)LQSIKAibOrnGGPSSGAPPPC(PEG40K)-NH2) [P417]", "VAL": "8.7 nM"}
